Biological target: GluN1-4a/GluN2C NMDARs (Rattus norvegicus, UniProt P35439+Q00961)
Construct: expressed in transfected cells; host or cells: Xenopus laevis oocytes injected with cRNA
Sequence (Q00961 20-1237, other chains not shown): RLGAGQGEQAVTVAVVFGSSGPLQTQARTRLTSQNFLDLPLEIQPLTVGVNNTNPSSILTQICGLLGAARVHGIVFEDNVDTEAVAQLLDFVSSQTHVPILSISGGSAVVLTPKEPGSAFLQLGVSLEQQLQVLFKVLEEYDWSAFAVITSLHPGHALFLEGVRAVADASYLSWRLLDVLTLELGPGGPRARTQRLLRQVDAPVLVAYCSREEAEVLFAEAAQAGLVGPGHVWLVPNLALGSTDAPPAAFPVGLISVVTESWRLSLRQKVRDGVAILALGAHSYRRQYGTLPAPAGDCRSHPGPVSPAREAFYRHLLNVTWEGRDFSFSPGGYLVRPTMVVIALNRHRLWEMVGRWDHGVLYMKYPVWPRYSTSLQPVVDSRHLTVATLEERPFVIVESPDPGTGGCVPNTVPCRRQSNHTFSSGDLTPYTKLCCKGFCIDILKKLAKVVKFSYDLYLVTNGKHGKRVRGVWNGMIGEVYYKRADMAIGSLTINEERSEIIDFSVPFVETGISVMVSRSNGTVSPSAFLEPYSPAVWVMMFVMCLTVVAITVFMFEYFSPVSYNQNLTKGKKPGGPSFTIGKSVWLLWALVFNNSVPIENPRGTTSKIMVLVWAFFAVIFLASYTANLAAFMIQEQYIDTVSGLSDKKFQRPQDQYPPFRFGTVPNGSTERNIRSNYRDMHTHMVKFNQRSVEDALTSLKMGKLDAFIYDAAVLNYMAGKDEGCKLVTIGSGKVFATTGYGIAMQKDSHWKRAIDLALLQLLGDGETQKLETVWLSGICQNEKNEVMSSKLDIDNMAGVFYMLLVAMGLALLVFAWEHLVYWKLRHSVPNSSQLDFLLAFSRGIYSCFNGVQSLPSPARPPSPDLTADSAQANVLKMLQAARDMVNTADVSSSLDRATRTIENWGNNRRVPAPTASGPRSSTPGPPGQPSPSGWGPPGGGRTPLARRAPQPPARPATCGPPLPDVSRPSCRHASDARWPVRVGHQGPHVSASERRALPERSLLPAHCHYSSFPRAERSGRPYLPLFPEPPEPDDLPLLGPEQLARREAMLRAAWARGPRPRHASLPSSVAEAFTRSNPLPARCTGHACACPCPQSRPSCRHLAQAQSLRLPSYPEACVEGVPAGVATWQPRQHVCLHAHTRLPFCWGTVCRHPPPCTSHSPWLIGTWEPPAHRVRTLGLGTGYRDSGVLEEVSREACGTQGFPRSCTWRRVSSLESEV
Test: TEVC electrophysiology on Xenopus laevis oocytes expressing GluN1-4a/GluN2C
Assay type: cell-based
Conditions: Ki, Cheng–Prusoff; 100 μM glycine, 1 or 3 μM L-glutamate
parameterMeasured: Ki

// query What value of Ki has been recorded for this entry: O=C(O)CCc1ccc2c(ccc3cc(C(=O)N4CCN[C@@H](C(=O)O)[C@H]4C(=O)O)ccc32)c1 (relative stereo)
// result 0.08 to 0.09 µM

---

Target: GluN1-4a/GluN2D NMDARs (Rattus norvegicus, UniProt P35439+Q62645)
Sequence (Q62645 28-1323, other chains not shown): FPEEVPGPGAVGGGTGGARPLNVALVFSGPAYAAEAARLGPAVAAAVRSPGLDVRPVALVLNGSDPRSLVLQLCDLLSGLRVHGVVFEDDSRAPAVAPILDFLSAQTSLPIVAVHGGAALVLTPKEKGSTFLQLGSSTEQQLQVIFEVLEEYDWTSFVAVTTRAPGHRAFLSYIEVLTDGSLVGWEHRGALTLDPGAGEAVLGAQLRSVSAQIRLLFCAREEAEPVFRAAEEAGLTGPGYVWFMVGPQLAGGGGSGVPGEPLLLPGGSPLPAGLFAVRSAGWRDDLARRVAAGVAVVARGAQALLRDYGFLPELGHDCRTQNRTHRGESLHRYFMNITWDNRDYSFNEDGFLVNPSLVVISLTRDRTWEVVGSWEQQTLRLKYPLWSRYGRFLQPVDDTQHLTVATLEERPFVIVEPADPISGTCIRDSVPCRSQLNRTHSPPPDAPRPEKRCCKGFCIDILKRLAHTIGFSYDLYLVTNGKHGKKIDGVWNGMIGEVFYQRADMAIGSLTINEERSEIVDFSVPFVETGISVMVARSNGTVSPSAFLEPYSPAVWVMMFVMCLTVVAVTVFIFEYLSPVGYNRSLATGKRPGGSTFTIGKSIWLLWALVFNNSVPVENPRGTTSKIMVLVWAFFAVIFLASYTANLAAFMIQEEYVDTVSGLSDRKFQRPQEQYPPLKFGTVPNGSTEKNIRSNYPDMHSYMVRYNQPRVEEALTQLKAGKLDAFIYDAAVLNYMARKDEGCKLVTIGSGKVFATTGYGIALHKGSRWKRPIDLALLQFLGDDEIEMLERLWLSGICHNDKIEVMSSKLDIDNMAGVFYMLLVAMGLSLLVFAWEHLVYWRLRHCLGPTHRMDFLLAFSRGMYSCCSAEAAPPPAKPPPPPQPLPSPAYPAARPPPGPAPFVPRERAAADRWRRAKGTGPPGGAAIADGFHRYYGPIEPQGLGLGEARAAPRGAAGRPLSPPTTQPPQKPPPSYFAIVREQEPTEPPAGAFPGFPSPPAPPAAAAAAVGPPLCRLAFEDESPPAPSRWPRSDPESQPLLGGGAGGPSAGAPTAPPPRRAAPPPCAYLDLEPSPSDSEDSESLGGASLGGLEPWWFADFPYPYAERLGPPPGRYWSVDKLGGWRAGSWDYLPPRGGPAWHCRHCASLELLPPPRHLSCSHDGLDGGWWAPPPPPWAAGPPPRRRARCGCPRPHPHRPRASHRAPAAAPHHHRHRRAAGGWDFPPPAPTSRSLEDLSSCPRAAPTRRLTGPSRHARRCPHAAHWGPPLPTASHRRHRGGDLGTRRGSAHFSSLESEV
Assay: TEVC electrophysiology on Xenopus laevis oocytes expressing GluN1-4a/GluN2D
parameterMeasured: EC50 (nM)
Record the value in nM, omitting the unit from your answer.

// query Give its EC50 value. Item: N[C@@H](CCC(=O)O)C(=O)O [L-glutamate, reference compound]
// result 170

---

Overview of recorded pKi for various compounds
Target: GluN1-4a/GluN2D NMDARs (Rattus norvegicus, UniProt P35439+Q62645)
Construct: expressed in transfected cells; host or cells: Xenopus laevis oocytes injected with cRNA
Test: TEVC electrophysiology on Xenopus laevis oocytes expressing GluN1-4a/GluN2D
Assay type: cell-based
Conditions: Ki, Cheng–Prusoff from IC50 and L-glutamate EC50; 100 μM glycine, 1 or 3 μM L-glutamate
For clarity, pKi is expressed as the negative log10 of concentration in mol/L.

O=C(O)CCc1ccc2c(ccc3cc(C(=O)N4CCN[C@@H](C(=O)O)[C@H]4C(=O)O)ccc32)c1 (relative stereo) [UBP791]: 7.05

Query compound follows.
// query Would you kindly share the measured pKi for CC(Cc1ccc2c(ccc3cc(C(=O)N4CCN[C@H](C(=O)O)[C@@H]4C(=O)O)ccc32)c1)C(=O)O (some centres unmarked) [UBP1701] ?
// result 7.00

---

Biological target: GluN1-4a/GluN2A-4m NMDAR (Ala414Arg, Lys738Met, Gly740Arg, Arg741Lys) (Rattus norvegicus, UniProt P35439+Q00959, A414R/G740R/K738M/R741K)
Construct: we incorporated the mutations, Ala414Arg, Lys738Met, Gly740Arg, and Arg741Lys, in the full-length GluN2A (GluN2A-4m)
Sequence (Q00959 23-1464 A414R/K738M/G740R/R741K, other chains not shown): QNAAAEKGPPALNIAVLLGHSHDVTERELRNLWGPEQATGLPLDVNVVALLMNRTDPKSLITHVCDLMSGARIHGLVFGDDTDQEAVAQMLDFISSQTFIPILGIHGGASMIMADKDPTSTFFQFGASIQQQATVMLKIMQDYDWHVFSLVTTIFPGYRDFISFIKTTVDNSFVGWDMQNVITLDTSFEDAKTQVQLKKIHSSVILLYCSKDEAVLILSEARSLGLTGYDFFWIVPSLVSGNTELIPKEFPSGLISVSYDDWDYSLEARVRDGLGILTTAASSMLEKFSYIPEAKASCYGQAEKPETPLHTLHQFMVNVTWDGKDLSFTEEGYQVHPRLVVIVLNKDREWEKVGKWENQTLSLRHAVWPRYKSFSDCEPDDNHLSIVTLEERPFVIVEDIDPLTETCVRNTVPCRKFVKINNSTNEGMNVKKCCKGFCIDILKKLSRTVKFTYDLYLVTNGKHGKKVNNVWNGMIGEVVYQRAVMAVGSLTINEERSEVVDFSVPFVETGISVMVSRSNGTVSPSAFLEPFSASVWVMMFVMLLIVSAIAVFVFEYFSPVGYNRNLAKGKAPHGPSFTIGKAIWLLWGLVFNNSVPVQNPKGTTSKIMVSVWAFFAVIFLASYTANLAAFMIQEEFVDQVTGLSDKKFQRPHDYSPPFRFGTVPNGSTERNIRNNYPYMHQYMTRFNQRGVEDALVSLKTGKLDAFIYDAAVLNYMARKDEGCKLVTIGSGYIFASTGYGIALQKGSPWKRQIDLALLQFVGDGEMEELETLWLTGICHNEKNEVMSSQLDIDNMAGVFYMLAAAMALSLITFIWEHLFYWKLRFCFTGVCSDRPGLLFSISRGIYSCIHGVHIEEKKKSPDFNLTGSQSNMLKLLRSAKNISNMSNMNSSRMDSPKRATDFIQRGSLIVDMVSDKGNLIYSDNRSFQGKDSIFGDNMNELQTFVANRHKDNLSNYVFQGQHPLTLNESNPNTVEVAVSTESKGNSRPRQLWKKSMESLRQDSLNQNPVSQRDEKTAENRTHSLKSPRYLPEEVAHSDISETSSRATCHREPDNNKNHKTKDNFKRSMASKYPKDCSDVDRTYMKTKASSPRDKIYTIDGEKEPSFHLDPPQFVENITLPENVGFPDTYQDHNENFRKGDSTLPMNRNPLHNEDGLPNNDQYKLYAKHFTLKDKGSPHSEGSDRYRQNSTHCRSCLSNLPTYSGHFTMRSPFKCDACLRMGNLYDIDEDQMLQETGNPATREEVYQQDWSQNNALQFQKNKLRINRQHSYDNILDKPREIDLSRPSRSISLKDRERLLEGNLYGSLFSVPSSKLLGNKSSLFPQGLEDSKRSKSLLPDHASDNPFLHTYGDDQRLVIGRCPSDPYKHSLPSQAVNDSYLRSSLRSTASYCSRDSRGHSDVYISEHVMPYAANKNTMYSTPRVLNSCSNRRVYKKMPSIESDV
Experiment: TEVC electrophysiology on oocytes expressing GluN1-4a/GluN2A-4m mutant
Recorded pKi by entry
pKi is a log-scale quantity: -log10 of the concentration expressed in molar.

O=C(O)CCc1ccc2c(ccc3cc(C(=O)N4CCN[C@@H](C(=O)O)[C@H]4C(=O)O)ccc32)c1 (relative stereo): 6.15

Read the next record carefully.
// query If you can, please state the reported pKi value of O=C(O)C=Cc1ccc2c(ccc3cc(C(=O)N4CCN[C@@H](C(=O)O)[C@H]4C(=O)O)ccc32)c1 (relative stereo) .
// result 7.30

The reported numbers originate from paper PMC6976569.
